# Target entity: PDE5 enzyme isolated from human platelets (Homo sapiens (Human))
# Protocol details: PDE5 assay (Example 109), formation of 5′GMP from cGMP, SPA;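 further: tritiated 5′GMP counted by scintillation after SPA bead capture, enzyme reaction run 60 min at 22 °C, basal control is the mixture without enzyme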
# Experimental context: percent inhibition of control enzyme activity at 5.0E−09 M; assay of Example 109
Please respond with YES when measured % inhibition at 5.0E−09 M is strictly beneath 20%, and with NO in all other cases.

Some solved cases for reference:
structure_as_smiles=CCCOc1ccc(S(=O)(=O)N2CCC(CCO[N+](=O)[O-])CC2)cc1-c1nc2c(CCC)cn(C)c2c(=O)[nH]1 class_name=YES
structure_as_smiles=CCCOc1ccc(S(=O)(=O)N2CCC(CCO[N+](=O)[O-])CC2)cc1-c1nc2c(CCC)cn(CC)c2c(=O)[nH]1 class_name=YES
structure_as_smiles=CCCc1cn(C)c2c(=O)[nH]c(-c3cc(S(=O)(=O)N4CCN(CCCO[N+](=O)[O-])CC4)ccc3OCC)nc12 class_name=YES
structure_as_smiles=CCCOc1ccc(S(=O)(=O)N2CCC(CCCO[N+](=O)[O-])CC2)cc1-c1nc2c(CCC)cn(CC)c2c(=O)[nH]1 class_name=YES
structure_as_smiles=CCCc1cn(C)c2c(=O)[nH]c(-c3cc(S(=O)(=O)N4CCN(CCO[N+](=O)[O-])CC4)ccc3OCC)nc12 class_name=NO
structure_as_smiles=CCCc1cn(C)c2c(=O)[nH]c(-c3cc(S(=O)(=O)N4CCN(CCO)CC4)ccc3OCC)nc12 class_name=NO
structure_as_smiles=CCCc1c(/C=N/O)n(C)c2c(=O)[nH]c(-c3cc(S(=O)(=O)N4CCC(CCO[N+](=O)[O-])CC4)ccc3OCC)nc12 class_name=YES
structure_as_smiles=CCCc1c(/C=N/O)n(C)c2c(=O)[nH]c(-c3cc(S(=O)(=O)N4CCC(CCO)CC4)ccc3OCC)nc12 class_name=NO

Qu. Confirm or reject: % inhibition at 5.0E−09 M of CCCOc1ccc(S(=O)(=O)N2CCC(CCO)CC2)cc1-c1nc2c(CCC)cn(CC)c2c(=O)[nH]1 lies strictly below 20%
Ans. NO

Qu. Confirm or reject: % inhibition at 5.0E−09 M of CCCOc1ccc(S(=O)(=O)N2CCN(CCO)CC2)cc1-c1nc2c(CCC)cn(C)c2c(=O)[nH]1 lies strictly below 20%
Ans. NO

====

# recovery per entry
# Protocol details: Measurements of human plasma protein binding
# Assay type: in vitro ADME
# Experimental context: human

Observe how each entry below is paired with its result.
molecule="CCCc1nn(C)c2c(=O)[nH]c(-c3cc(S(=O)(=O)N4CCN(C)CC4)ccc3OCC)nc12 [sildenafil, reference compound]" parameter_measured=recovery reported_value=104%
molecule="CC(=O)CC(c1ccccc1)c1c(O)c2ccccc2oc1=O (stereo not shown) [Warfarin, reference compound]" parameter_measured=recovery reported_value=101%
molecule="CCCc1cn(C)c2c(=O)[nH]c(-c3cc(S(=O)(=O)N4CCC(CCO[N+](=O)[O-])CC4)ccc3OCC)nc12 [Compound 2c]" parameter_measured=recovery reported_value=105%

Now for the molecule whose recovery we want.
Qu. State its recovery: CCCOc1ccc(S(=O)(=O)N2CCC(CCO[N+](=O)[O-])CC2)cc1-c1nc2c(CCC)cn(CC)c2c(=O)[nH]1 [Compound 1b]
Ans. 100%
